The values you see were collected from the supplement of paper PMC12042874.

Kindly supply the reported amyloid nucleation score values for the records listed here.
Assay: amyloid nucleation score (Sup35N fusion, yeast selection) (log enrichment); library NNK1; higher = more nucleation; inactive = no reads after selection;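 also: zero at mode of non-aggregating sequences after 7 days selection at 30°C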
Give bare numbers.

Look over these answered cases.
- APDDSRQCSETESSGFLTHW: 0.366
- AHKWCVVCQTV: 0.338
- MRHRCGHRSVPG: -0.118
- RCSGYRFRFTVRRTSLCFVK: -0.447
- ILSICLSLVFRPSVMIEYLR: 0.191

As a next step, examine the sequence that follows.
Asked: Given the sequence `FFCEIVMYGWSIM` , what is its reported amyloid nucleation score?
Given back: 2.97

----------
Test: amyloid nucleation score (Sup35N fusion, yeast selection) (log enrichment); library NNK1; higher = more nucleation; inactive = no reads after selection
metric name: amyloid nucleation score
One number for each entry.

Look over these answered cases.
- KSVVSFMTFPSLQEHKVVLI: 0.33
- YLAWNM: 1.8
- YWNDVAS: -0.931

As a next step, examine the substance that follows.
Asked: Given the substance `LNDRYYVIM` , what is its reported amyloid nucleation score?
Given back: 0.233

----------
Test: amyloid nucleation score (Sup35N fusion, yeast selection) (log enrichment); library NNK1; higher = more nucleation; inactive = no reads after selection
metric name: amyloid nucleation score

• NKNSGSRHHHVTYQLTPGER = inactive
• CVKASLMMWVQFYIDSY = inactive
• GFDIMYLILTPSCPATQSGM = inactive

----------
Assay: amyloid nucleation score (Sup35N fusion, yeast selection) (log enrichment); library NNK2; higher = more nucleation; inactive = no reads after selection
metric name: amyloid nucleation score

Look over these answered cases.
• SFASRYFSNKGGLHSDMCAS = inactive
• VRYGDRSGGLYLKRYFMLSF = inactive
• GQLNLGCWSYRGSRFWTWLR = inactive
• YLEFSPTSITWGAPLERYST = inactive

Batch request: amyloid nucleation score per item, same order as input.
1. FPKIQSKFSRDIFSDGNEYE
2. NRGEDSPSYPGCHHMKLCIC
3. CMSNTMCAFVDGYNMHYLVD
4. YLEMMYVAFNFFNGIYCLFY

Given back:
inactive
inactive
inactive
inactive

----------
Test: amyloid nucleation score (Sup35N fusion, yeast selection) (log enrichment); library NNK2; higher = more nucleation; inactive = no reads after selection
metric name: amyloid nucleation score

* CTEFSLTDCSSG | inactive
* LNKNRHGVGIFGIIKYKDMT | inactive
* SSSMSESAT | inactive

----------
Assay: amyloid nucleation score (Sup35N fusion, yeast selection) (log enrichment); library NNK1; higher = more nucleation; inactive = no reads after selection
Kindly supply the reported amyloid nucleation score values for the records listed here.
Numbers only.

Look over these answered cases.
- KVIFQVYYI: 7.46
- PRKACTIGWLGSINLERGEE: -0.681
- AVCDKVLRSVEWIFPGLNDS: -0.496
- SVLFNAAFFKFQNRF: 0.5
- MCSKWDFQVLSHTDSWVWV: -0.67

Batch request: amyloid nucleation score per item, same order as input.
1. IPSGTVF
2. ESHMRNHR
3. TDQVWMLVSRRFKHFRHIEV
4. RFNWFL
5. RGCSFFWCPLCRGYGGCLCC

Given back:
[0.34, 0.312, 1.38, -0.285, 0.482]

Batch request: amyloid nucleation score per item, same order as input.
1. DPADAPMITRNVGTWAKQVP
2. FCKCNQVFISCLCGSTKHTG
3. VYYLGVKAFLFNSSF
4. INMRKLPSRVSSFKVKCGHR
5. SSLMPIYRLFLWFVKVYVKP
6. RLLGLHWIT
7. VYRNASLCVSEVL
8. NNIFGLSIYKYCQGRYCNCS

Given back:
1: 0.324; 2: 3.59; 3: 0.824; 4: -0.42; 5: 9.39; 6: 1.5; 7: 0.211; 8: 8.23

Batch request: amyloid nucleation score per item, same order as input.
1. LLVCSMHFISMTPVMPNSTA
2. SNNGCRIQRGVRNLAKGSTL
3. LSCPRLVTLCCNLWDKYSLW
4. VMTVMVFMRYRGRFVYG
5. SFIMSNS
6. CVFMRATLQK

Given back:
[2.12, -1.09, 0.955, -0.041, 0.075, 3.25]

Batch request: amyloid nucleation score per item, same order as input.
1. ISKNLNRMHILVLYMVGMRF
2. LLSIVPPDIFCQFSGHGRLT
3. TYIYSTILEVFYLSLGHVII
4. FVGGVSSERYLFGWLS

Given back:
[0.259, 0.26, 0.775, -1.51]
